- Test system: transient receptor potential cation channel C4 (TRPC4), mouse
- test.description: membrane potential change in TRPC4 cells – cell-based, HEK293 TRPC4/mu-opioid, membrane potential dye, selectivity assay for TRPC6 inhibitor project, confirmation (AID 2777);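 also: integrated kinetic ratio of fluorescence range over baseline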
- test.context: membrane potential fluorescence, at 10 µM
The list shows a part of the results. Calls of active or inactive are those of the source.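 The calls were made as follows: active = rise or fall in signal beyond 3 SD of buffer-only wells in both replicate plates, either sign; inactive = the rest.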
A correct response names exactly one class from active, inactive

| molecule | target.under.test | assigned.label |
| --- | --- | --- |
| Cc1ccc2nc(C)c3c(c2c1)N(c1ccccc1)CC3 | transient receptor potential cation channel C4 (TRPC4), mouse | inactive |
| N=c1c2c(-c3ccccc3)c(-c3ccccc3)n(Cc3ccccc3)c2ncn1CCCO | transient receptor potential cation channel C4 (TRPC4), mouse | inactive |

Which result was noted for this molecule in the test: `O=C(NC(Nc1nc2ccc([N+](=O)[O-])cc2s1)(C(F)(F)F)C(F)(F)F)c1ccccc1`
active

====

- test.description: serotonin-gated TRPC4 signal block – cell-based, second counter screen, HEK293 TRPC4/5HT1a, Fluo-4, counter-screen for TRPC4 inhibitor project, confirmation (AID 434978)
- test.context: Fluo-4 calcium flux, at 10 µM, serotonin added to trigger calcium flux
Active and inactive are the calls of the source.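 The calls were made as follows: active = primary screen active whose calcium signal fell more than 3 SD beyond the full-serotonin control mean in both duplicate plates; inactive = the rest.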
A correct response names exactly one class from 1 (yes) (active), 0 (no) (inactive)

Which result was noted for this compound in the test: `COC(=O)c1cc(N2CCNCC2)nc2ccccc12`
0 (no)

Which result was noted for this compound in the test: `Cc1cc(Nc2ccccc2)nc2cc(O)ccc12`
1 (yes)

Which result was noted for this compound in the test: Cc1ccc(CNC(=O)C2CCCN(Cc3cnn(-c4ccccc4)c3-n3cccc3)C2)cc1 (stereo unspecified)
0 (no)

Which result was noted for this compound in the test: `Clc1cccc(OCCN2CCNCC2)c1`
0 (no)

Which result was noted for this compound in the test: `COc1ccccc1CNCc1cc(Br)ccc1OC`
0 (no)

Which result was noted for this compound in the test: `CCOc1cc(CNC2CCCC2)cc(Cl)c1OCc1ccccc1`
1 (yes)

Which result was noted for this compound in the test: `COc1ccc(CCN(C)C(=O)c2cc(S(=O)(=O)N3CCCCC3)ccc2Cl)cc1OC`
0 (no)

Which result was noted for this compound in the test: COc1ccc(C(CNCC(O)COc2c(C)ccc(C)c2C)N(C)C)cc1 (stereo unspecified)
0 (no)

Which result was noted for this compound in the test: `O=C(Nc1ccnn1C1CCN(CCCC2CCCC2)CC1)c1ccccc1Cl`
0 (no)

Which result was noted for this compound in the test: COc1ccc(CC(=O)NCC(c2ccc(OC)cc2)N(C)C)cc1 (stereo unspecified)
0 (no)

Which result was noted for this compound in the test: CC(=O)c1c(C)nn(CC(=O)NC2CCCN(Cc3ccc(CC(C)C)cc3)C2)c1C (stereo unspecified)
0 (no)

====

- target.under.test: Inward rectifier potassium channel 2 (Mus musculus)
- test.description: inhibition of Kir2.1 inward rectifier potassium flux – cell-based, FluxOR thallium flux, duplicate, confirmation (AID 2032)
- test.context: Kir2.1-expressing cells, FluxOR thallium flux fluorescence, at 10 µM
The list shows a part of the results. Activity calls are given as the source filed them.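 How the source made its calls: active means Primary-screen hit whose thallium flux fell at least 3 control SD below untreated wells in both duplicates, with normal baseline fluorescence; inactive means the rest.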
A correct response names exactly one class from active, inactive

| molecule | assigned.label |
| --- | --- |
| CCN(CC(=O)NC(=O)NCc1ccccc1)Cc1nc2ccccc2c(=O)[nH]1 | inactive |
| CCN(CC)CCC(c1ccc2c(c1)OCO2)c1c(OC)cc(OC)c2c(-c3ccccc3)cc(=O)oc12 (configuration not stated) | active |
| C=CCc1cc(S(=O)(=O)c2ccc(O)c(CC=C)c2)ccc1O | active |
| Cc1cc2cc3c(cc2nc1SCC(=O)Nc1c(C)cccc1C)CCC3 | inactive |
| CC(NC(=O)Nc1ccccc1)c1ccccc1 (configuration not stated) | inactive |

Which result was noted for this molecule in the test: `O=C(CCCN1CCc2[nH]c3ccc(F)cc3c2C1)c1ccc(F)cc1`
active

Which result was noted for this molecule in the test: `O=C(NC(Nc1nc2ccc([N+](=O)[O-])cc2s1)(C(F)(F)F)C(F)(F)F)c1ccccc1`
inactive

Which result was noted for this molecule in the test: `CC1(C)NC(=O)N(CCCCSc2ccc(Cl)cc2)C1=O`
active

Which result was noted for this molecule in the test: `CCCCNC(=O)Nc1c(C)cc(SC#N)cc1C`
inactive

Which result was noted for this molecule in the test: Cc1cc2oc3ccc(NCCC4CCCN4C)cc3c(=O)c2cc1C (configuration not stated)
inactive

====

- target.under.test: Short transient receptor potential channel 4 (Mus musculus)
- test.description: calcium entry via TRPC4 opening agents – cell-based, HEK293 TRPC4/mu-opioid, Fluo-4 calcium, dose response (AID 434937);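 also: HEK293 cells coexpressing mouse TRPC4 with mu-opioid receptor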
- test.context: HEK293 TRPC4 cells, Fluo-4 calcium fluorescence ratio; series mostly up to 20 µM
Results with a measured potency or affinity are listed apart. Activity calls are given as the source filed them.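 The calls were made as follows: active = primary screen activator hit with a dose response curve and TRPC4 channel activation at any tested dose; inactive = no activation, no dose response, or not a primary hit.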
observed.property: outcome

Solved entries:
| compound | target.under.test | result |
| --- | --- | --- |
| Clc1ccc(OCCCc2nc(-c3ccncc3)no2)c(Cl)c1 | Short transient receptor potential channel 4 (Mus musculus) | inactive |
| CC1=NN(C(=O)COc2ccc(C)c(C)c2)C(O)(c2ccc(Cl)cc2)C1 (stereo unspecified) | Short transient receptor potential channel 4 (Mus musculus) | inactive |
| CN(C)C(CNC(=O)CCc1nc2ccccc2s1)c1ccccc1 (stereo unspecified) | Short transient receptor potential channel 4 (Mus musculus) | inactive |
| Cc1cccc(OCCn2c(=O)sc3ccccc32)c1 | Short transient receptor potential channel 4 (Mus musculus) | inactive |
| CCN(CC)CCOC(=O)c1cccc(Br)c1 | Short transient receptor potential channel 4 (Mus musculus) | inactive |
| COc1ccccc1N(C(=O)c1snc(C(N)=O)c1N)C(C(=O)NCc1ccccc1)c1ccc(C)o1 (stereo unspecified) | Short transient receptor potential channel 4 (Mus musculus) | inactive |
| Cc1ccc(C)n1-c1nnc(N2CCC(C(=O)NCCCN3CC(C)CC(C)C3)CC2)s1 (stereo unspecified) | Short transient receptor potential channel 4 (Mus musculus) | inactive |
| Cc1cc(C)nc(NNS(=O)(=O)c2ccc(F)c(Cl)c2)n1 | Short transient receptor potential channel 4 (Mus musculus) | inactive |
| O=[N+]([O-])c1ccccc1CN1CCN(S(=O)(=O)c2ccccc2)CC1 | Short transient receptor potential channel 4 (Mus musculus) | inactive |
| Cc1ccccc1C(=O)NC1CC2CCC(C1)N2Cc1ccccc1 (stereo unspecified) | Short transient receptor potential channel 4 (Mus musculus) | inactive |

Switching to the query record.
Specify measured outcome for `O=C(CSc1nc2[nH]ncc2c(=O)n1-c1ccccc1Br)NCc1ccccc1Cl` .
inactive

====

- Test system: TRPC4 beta (transient receptor potential cation channel C4), mouse
- test.description: potentiation of DAMGO EC20 TRPC4 response – cell-based, Fluo-4, HEK293 TRPC4beta/mu-opioid, confirmation (AID 2555)
- test.context: DAMGO EC20, Fluo-4 calcium flux, at 10 µM
Calls of active or inactive are those of the source.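 How the source made its calls: active means primary screen hit whose calcium fluorescence ratio, in both repeats, exceeds the weak agonist control mean by 3 SD; inactive means the rest.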
A correct response names exactly one class from active, inactive

Below, 5 compounds whose answers are already recorded.
| compound | target.under.test | assigned.label |
| --- | --- | --- |
| CCOC(=O)C1(CCc2ccccc2)CCN(Cc2ccccn2)CC1 | TRPC4 beta (transient receptor potential cation channel C4), mouse | inactive |
| O=C(Nc1cccc(Cl)c1)N1CCN2C(=O)c3ccccc3C12c1ccccc1 (stereo unspecified) | TRPC4 beta (transient receptor potential cation channel C4), mouse | inactive |
| COc1ccc(C(Nc2ccccn2)c2c(NC(=O)c3ccco3)sc(C)c2C)cc1OC (stereo unspecified) | TRPC4 beta (transient receptor potential cation channel C4), mouse | inactive |
| CN(C)CCCNc1ncnc2c1cnn2-c1ccccc1 | TRPC4 beta (transient receptor potential cation channel C4), mouse | active |
| COc1ccc(-c2cc(C(F)(F)F)nc(N3CCN(C)CC3)n2)cc1 | TRPC4 beta (transient receptor potential cation channel C4), mouse | inactive |

Which result was noted for this compound in the test: COc1ccc(C(CNCC(O)COc2c(C)ccc(C)c2C)N(C)C)cc1 (stereo unspecified)
inactive

Which result was noted for this compound in the test: COc1ccc(C)cc1N(C(=O)c1snc(C(N)=O)c1N)C(C(=O)NC1CCCC1)c1ccc(F)cc1 (stereo unspecified)
inactive

Which result was noted for this compound in the test: `CCCOc1cccc(C(=O)NCCNC(=O)c2ccco2)c1`
inactive

Which result was noted for this compound in the test: CCC(C)NC(C(=O)Nc1ccc(Cl)c([N+](=O)[O-])c1)c1ccccc1 (stereo unspecified)
inactive

Which result was noted for this compound in the test: `CCN1/C(=C\c2ccc3cc(C)ccc3[n+]2CC)Sc2cc(C)c(C)cc21`
active

Which result was noted for this compound in the test: `Cc1cccc(C)c1NC(=O)NCCCN1CCN(c2ccccc2)CC1`
inactive

====

- target.under.test: Short transient receptor potential channel 4 (Mus musculus)
- test.description: calcium flux activators in TRPC4/5HT1a cells, counter-screen for TRPC4 activator project, cell-based, second counter screen, HEK293 TRPC4/5HT1a, Fluo-4 (AID 434977)
- test.context: Fluo-4 calcium flux, at 10 µM
Calls of active or inactive are those of the source.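 Rule for the calls: active = calcium signal rise above buffer-control mean plus 5 SD in both duplicates, and also a hit in the primary screen; inactive = the rest.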
A correct response names exactly one class from True (active), False (inactive)

Which result was noted for this compound in the test: `Brc1cc2c(cc1COc1ccc(-c3nn[nH]n3)cc1)OCO2`
False

Which result was noted for this compound in the test: CC(C)C1CC(CCNCc2ccc3c(c2)OCO3)(c2ccccc2)CCO1 (stereo unspecified)
True

Which result was noted for this compound in the test: `COc1cccc(OCCOCCNCCO)c1`
False

Data origin: PubChem BioAssay
